Data provenance: the Human Domainome abundance scans (Beltran et al. 2025)

B1: Chromodomain-helicase-DNA-binding protein 7, residues 2564 to 2605; numbered along this chain, Q9P2D1 (parent)
chain: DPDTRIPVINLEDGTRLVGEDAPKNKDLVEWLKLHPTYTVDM

Variants of: B1
Method: abundance fitness (aPCA) (normalised: wild type 0, dead -1); higher = more abundant; growth selection in yeast, the domain comes from the species named
Cond: Homo sapiens
# abundance fitness listing for each entry below

sequence_string="DPGTRIPVINLEDGTRLVGEDAPKNKDLVEWLKLHPTYTVDM [D3G]" result=-0.384
sequence_string="DPDTRIPVINLEDGTRLRGEDAPKNKDLVEWLKLHPTYTVDM [V18R]" result=-0.081
sequence_string="DPDTRIPVINLEDGTRLVGEDAPKNKDLVEWLKLHPTYTVDL [M42L]" result=-0.172
sequence_string="DPDTRIPVINLEDGTRLVGEDAPKNKDLVEWLKLHNTYTVDM [P36N]" result=-0.36
sequence_string="DPDTRIPVINLEDGTRLVGEDAPKNKDDVEWLKLHPTYTVDM [L28D]" result=-0.432
sequence_string="DPDTRIPVINLEDGTRLVGEDAPKNKDLVEWLKLHPTVTVDM [Y38V]" result=-0.652
sequence_string="DPDTRIPVINLEDGTRLVGEDAPKNKDLVEWLKLHPTYTMDM [V40M]" result=-0.379
sequence_string="DPDTRIPVINLEDGTRLVGEDAPKNKDLVEWLKLHPTSTVDM [Y38S]" result=-0.297
sequence_string="DPDTRIPVINLEDGTRLVGEDAPKNKDLCEWLKLHPTYTVDM [V29C]" result=-0.087
sequence_string="DPDTRIPVINLEDGTRLVHEDAPKNKDLVEWLKLHPTYTVDM [G19H]" result=-0.478

Would you mind telling me what abundance fitness value was observed for DPDTRIPVINLEDGTRLVGEDAPKNKDLGEWLKLHPTYTVDM [V29G] ?
-0.081

Suppose we examine the variant DPDTRIPGINLEDGTRLVGEDAPKNKDLVEWLKLHPTYTVDM [V8G] ; what abundance fitness value has been reported?
-0.66

What value of measured abundance fitness is listed for DPDTRIPVINLEDGTRLVGEDAPKNKDLVAWLKLHPTYTVDM [E30A] ?
0.027

Which abundance fitness value is on record for DPDTRIPVINNEDGTRLVGEDAPKNKDLVEWLKLHPTYTVDM [L11N] ?
0.242

Which abundance fitness is listed for DPDTCIPVINLEDGTRLVGEDAPKNKDLVEWLKLHPTYTVDM [R5C] ?
-0.27
